Biological target: Gonadotropin-releasing hormone receptor (Homo sapiens)
Experiment: In vitro inhibition of specific [125I]leuprorelin binding to the cloned human LHRH receptor expressed in chinese hamster ovary cells
IC50 reference
The reply should contain only the number, in nM.

1. C=CC(=O)Nc1ccc(-c2nc3n(Cc4c(F)cccc4F)cc(C(=O)OCC)c(=O)n3c2CN(C)Cc2ccccc2)cc1	3
2. CCNC(=O)Nc1ccc(-c2nc3n(Cc4c(F)cccc4F)cc(C(=O)OC(C)C)c(=O)n3c2CN(C)Cc2ccccc2)cc1	0.3

Quick one: IC50 of `CCOC(=O)c1cn(Cc2c(F)cccc2F)c2nc(-c3ccc(NC(=O)NOC)cc3)c(CN(C)Cc3ccccc3)n2c1=O` ?
0.7

Next: `CCOC(=O)c1cn(Cc2c(F)cccc2F)c2nc(-c3ccc(NC(=O)c4ccoc4)cc3)c(CN(C)Cc3ccccc3)n2c1=O`
3

====

Collected IC50 values appear next to each entry.
Biological target: Gonadotropin-releasing hormone receptor (Homo sapiens, UniProt P30968)
Sequence (P30968 whole entry): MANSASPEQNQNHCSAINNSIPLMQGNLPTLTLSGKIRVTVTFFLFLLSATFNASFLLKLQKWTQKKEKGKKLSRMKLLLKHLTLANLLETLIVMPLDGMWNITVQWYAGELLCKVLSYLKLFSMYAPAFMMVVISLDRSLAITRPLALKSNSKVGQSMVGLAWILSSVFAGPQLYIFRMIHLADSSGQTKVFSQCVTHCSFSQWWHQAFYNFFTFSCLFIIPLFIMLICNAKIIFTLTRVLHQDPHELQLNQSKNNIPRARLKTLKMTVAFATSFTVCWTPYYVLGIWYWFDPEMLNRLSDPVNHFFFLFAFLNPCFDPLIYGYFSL
Test: In vitro inhibition of specific [125I]leuprorelin binding to the cloned human LHRH receptor expressed in chinese hamster ovary cells
Write it as a number; the unit nM goes unstated.

1) CCOC(=O)c1cn(Cc2c(F)cccc2F)c2nc(-c3ccc(NC(=O)c4ccccc4)cc3)c(CN(C)Cc3ccccc3)n2c1=O	20
2) CCOC(=O)c1cn(Cc2c(F)cccc2F)c2nc(-c3ccc(NC(=O)C4CC4)cc3)c(CN(C)Cc3ccccc3)n2c1=O	5
3) CONC(=O)Nc1ccc(-c2nc3n(Cc4c(F)cccc4F)cc(C(=O)OC(C)C)c(=O)n3c2CN(C)Cc2ccccc2)cc1	0.4

Item: `CCOC(=O)c1cn(Cc2c(F)cccc2F)c2nc(-c3ccc(NC(=O)CC)cc3)c(CN(C)Cc3ccccc3)n2c1=O` Test system: Gonadotropin-releasing hormone receptor (Homo sapiens, UniProt P30968) Read-out: IC50 Value: ?
10

Also check `CCOC(=O)c1cn(Cc2c(F)cccc2F)c2nc(-c3ccc(NC(=O)c4ccsc4)cc3)c(CN(C)Cc3ccccc3)n2c1=O`
7

Moving on to `CCOC(=O)c1cn(Cc2c(F)cccc2F)c2nc(-c3ccc(NC(=O)C(C)C)cc3)c(CN(C)Cc3ccccc3)n2c1=O`
30
